// read-out IC50, gathered for Lysine-specific histone demethylase 1A (Homo sapiens, UniProt O60341) from published studies

INPUT: Quick check: IC50 of `N#Cc1ccc(-c2cc(NC[C@H]3CCC[C@H](N)C3)nn2-c2cccc(N3CCS(=O)(=O)CC3)c2)cc1F` ?
OUTPUT: 1000 to 10000 nM

INPUT: Return reported IC50; argument: `CN1CCN(c2ccc(-n3nc(C(=O)N4CCC[C@@H](N)C4)cc3-c3ccc(C#N)c(F)c3)cc2)CC1`
OUTPUT: < 500 nM

INPUT: Data request, read-out IC50, for `N#Cc1ccc(-c2nc3c(N4CCC[C@@H](N)C4)ccnc3n2-c2ccc(N3CC[C@H](Cl)C3)cc2F)cc1F`
OUTPUT: 26 nM

INPUT: Bench note: what IC50 did `N#Cc1ccc(-c2nc(N3CCC(N)CC3)sc2-c2cnn(CC(F)(F)F)c2)cc1` show?
OUTPUT: ≤ 100 nM

INPUT: Any idea what IC50 was measured for `C[C@H](c1ccccc1)n1cc(-c2ccc(C#N)cc2)nc(N2CCC(N)CC2)c1=O` ?
OUTPUT: < 100 nM

INPUT: Value lookup for IC50; key = Cn1ncc2cc(-c3sc(N4CCC5NCCC5C4)nc3-c3ccc(C#N)cc3)ccc21 (stereo not drawn)
OUTPUT: ≤ 100 nM

INPUT: Fill in the blank: the reported IC50 of `Cc1ccc(-n2c(-c3ccc(C#N)cc3)nc3c(N4CCC[C@@H](N)C4)ccnc32)cc1` is ____.
OUTPUT: 56 nM

INPUT: I am curious: what IC50 value has been reported for `Cn1cc2cc(-c3c(-c4ccc(C#N)c(F)c4)cc(C(=O)N[C@@H]4CCNC4)n3C)ccc2n1` ?
OUTPUT: < 100 nM

INPUT: # lookup: IC50 of `COCCn1c(-c2ccc(C)cc2)c(-c2ccc(C#N)cc2)nc(N2CCC(N)CC2)c1=O`
OUTPUT: < 100 nM

INPUT: Fill in: IC50 of `COc1ccc(-n2c(-c3ccc(C#N)c(F)c3)nc(C(=O)N3CC[C@@H](N)C3)c2C)cc1` is ___
OUTPUT: < 100 nM

INPUT: Need IC50 of `Cn1cc(-c2cccc(-n3nc(NC[C@H]4CCC[C@H](N)C4)cc3-c3ccc(C#N)c(F)c3)c2)cn1` , thanks.
OUTPUT: < 500 nM

INPUT: Reported IC50 for N#Cc1ccc(-c2cc(NCC3CCCNCC3)nn2-c2ccc(N3CCS(=O)(=O)CC3)cc2)cc1F (stereo not drawn) : what is it?
OUTPUT: < 500 nM

INPUT: Give the measured IC50 of Cn1cc2cc(-n3nc(-c4ccc(C#N)c(F)c4)cc3C(=O)N3CCCC(N)C3)ccc2n1 (stereo not drawn) .
OUTPUT: < 500 nM

INPUT: Using the record for Clc1ccc(-c2nnc(C3(CN[C@H]4CC4c4ccccc4)CC3)o2)cc1 (stereo partly drawn) , report its IC50.
OUTPUT: ≤ 50 nM

INPUT: Quick one: IC50 for `Cn1c(-c2ccc(OC(F)(F)F)cc2)c(-c2ccc(C#N)c(F)c2)nc(NC[C@H]2CCNC2)c1=O` ?
OUTPUT: < 100 nM

INPUT: Field request: IC50 | item: `CN[C@H]1CC[C@H](c2nc(C3(CN[C@@H]4C[C@H]4c4ccccc4)CC3)no2)CC1`
OUTPUT: 50 to 100 nM

INPUT: What value of IC50 has been reported for the following compound? CC(C)Oc1ccc(-c2nc(C3(CN[C@H]4CC4c4ccccc4)CCC3)no2)cc1C#N (stereo partly drawn)
OUTPUT: ≤ 50 nM

INPUT: Request the reported IC50 associated with `Cc1ccc(-c2cnc(NCC3CCNCC3)nc2-c2ccc(C#N)cc2)cc1`
OUTPUT: < 100 nM

INPUT: May I ask what IC50 has been recorded for `O=c1[nH]cc(CCCN[C@@H]2C[C@H]2c2ccc(F)cc2)nc1N1CCC1` ?
OUTPUT: 12 nM

INPUT: Which IC50 value belongs to CCN(CC)CC1(CN[C@H]2CC2c2ccccc2)CC1 (stereo partly drawn) ?
OUTPUT: 100 to 500 nM

INPUT: Record request: IC50 value, item Cn1ncc2cc(-n3nc(NC[C@@H]4CCC[C@H](N)C4)cc3-c3ccc(C#N)c(F)c3)ccc21 (single isomer, unassigned)
OUTPUT: < 500 nM

INPUT: Recorded IC50 of `CN(C)S(=O)(=O)c1ccc(-n2cc(CCCN[C@@H]3C[C@H]3c3ccc(F)cc3)nc(N3CCN(S(C)(=O)=O)CC3)c2=O)cc1` , please.
OUTPUT: 2 nM

INPUT: Can you look up the measured IC50 of `c1ccc([C@@H]2C[C@H]2NCC2(c3noc([C@H]4C[C@H]5CNC[C@H]5C4)n3)CC2)cc1` for me?
OUTPUT: 50 to 100 nM

INPUT: May I ask what IC50 has been recorded for Cc1ccc(-c2c(-c3ccc(C#N)cc3)nc(N3CCC4CNCC4C3)c(=O)n2C)cc1 (stereo not drawn) ?
OUTPUT: < 100 nM

INPUT: Endpoint output: IC50 of `COC1CCN(c2ccc(-n3nc(NC[C@H]4CCC[C@H](NC(=N)N)C4)cc3-c3ccc(C#N)c(F)c3)cc2)CC1` . Value?
OUTPUT: < 500 nM

INPUT: What IC50 value was documented for this compound, `CN1CCN(c2nc(C3(CN[C@@H]4C[C@H]4c4ccccc4)CC3)no2)CC1` ?
OUTPUT: ≤ 50 nM

INPUT: # query: IC50 of entry COc1ccc(-n2nc(NCC3CCNC3)cc2-c2ccc(C#N)c(F)c2)cc1 (stereo not drawn)
OUTPUT: < 500 nM
